- TESTED_TARGET: T1, FcRn-p3 fusion protein (human, UniProt P55899 24-297; P61769 21-119)
- T1 construct: baculovirus expressed; coated on ELISA wells; not shown: amino terminal part of bacteriophage p3 protein and CVDE protein
- T1 sequence (P55899 24-297, chain 1 of 2): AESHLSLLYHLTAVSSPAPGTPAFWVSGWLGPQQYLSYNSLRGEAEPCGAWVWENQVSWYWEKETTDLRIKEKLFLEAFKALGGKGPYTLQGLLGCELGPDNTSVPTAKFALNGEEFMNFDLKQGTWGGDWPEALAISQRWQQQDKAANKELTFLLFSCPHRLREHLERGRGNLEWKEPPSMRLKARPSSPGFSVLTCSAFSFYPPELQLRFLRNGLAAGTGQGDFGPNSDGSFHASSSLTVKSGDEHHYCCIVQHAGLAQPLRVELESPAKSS
- T1 sequence (P61769 21-119, chain 2 of 2): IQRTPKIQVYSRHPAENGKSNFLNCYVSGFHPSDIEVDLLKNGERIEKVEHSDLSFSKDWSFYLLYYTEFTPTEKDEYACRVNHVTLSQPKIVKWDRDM
- EXPERIMENT: phage ELISA pH6
MEASURED_QUANTITY: Ratio/Fc-H (fold)
Numeric only. Scale: fold

Previously resolved entries follow.
• T6A_85 (other, EU numbering) CPPCPAPELLGGPSVFLFPPKPKDALMISRTPEVTCVVVDVSHEDPEVKFNWYVDGVEVHNAKTKPREEQYNSTYRVVSVLTVLHQDWLDGKEYKCKVSSKALPVPIEKTISKAKGQPREPQVYTLPPSRDELTKNQVSLTCLVKGFYPSDIAVEWESNGQPENNYKTTPPVLDSDGSFFLYSKLTVDKSRWQQGNVFSCSVMHEALHYHYTQKSLSLSPGK = 5.1
• T4A_32 (other, EU numbering) CPPCPAPELLGGPSVFLFPPKPKDTLMISRTPEVTCVVEDVSHEDPEVKFNWYVDGVEVHNAKTKPREEQYNSTYRVVSVLTVLHQDWLNGKEYKCKVSNKALPAPIEKTISKAKGQPREPQVYTLPPSRDELTKNQVSLTCLVKGFYPSDIVVEWESNGQPENNYKTTPPVLDSDGSFFLYSKLTVDKSRWQQGNVFSCSVMHEALRNHYTQKSLSLSPGK = 2.3

Entry T4A_46 (other, EU numbering) CPPCTAPELLGGPSVFLFPPKPKDTLMISRTPEVTCVVVDVSHEDPEVKFNWYVDGVEVHNAKTKPREEQYNSTYRVVSVLTVLHQDWLNGKEYKCKVSNKALPAPIEKTISKAKGQPREPQVYTLPPSRDELTKNQVSLTCLVKGFYPSDIAVEWESNGQPEKNYKTTPPVLDSDGSFFLYSKLTVDKSRWQQGNVFSCSVMHEALHYHYTQKSLSLSPGK : reported Ratio/Fc-H = ?
3.6

Could you share which Ratio/Fc-H value was measured for T3A_10 (other, EU numbering) CPPCPAPELLGGPSVFLFPPKPKDTLMISRTPEVTCVVVDVSHEDPEVKFNWYVDGVEVHNAKTKPREEQYNSTYRVVSVLTVLHQDWLDGKEYKCKVSNKALPVPIEKTISKAKGQPREPQVYTLPPSRDELTKNQVSLTCLVKGFYPSDIAVEWESNGQPEKNYKTTPPVLDSDGSFFLYSKLTVDKSRWQQGNVFSCSVMHEALHYHYTQKSLSLSPGK ?
2.4

Any idea what its Ratio/Fc-H is? The binder is T7A_17 (other, EU numbering) CPPCPAPELLGGPSVFLFPPKPKDTLMISRTPEVTCVVEDVSHEDPEVKFNWYVDGVEVHNAKTKSREEQYNSTYRVVSVLTVLHQDWLNGKEYKCKVSNKALPAPIEKTISKAKGQPREPQVYTLPPSRDELTKNRVSLTCLVKGFYPSDIVVEWESNGQPENNYKTTPPVLDSDGSFFLYSKLTVDKSRWQQGNVFSCSVMHEALHYHYTQKSLSLSPGK
2
